Reported HDAC2 activity raw data (signal) values for the following molecules.
Biological target: HDAC2 (Homo sapiens)
Construct: purchased Reaction Biology Corporation (assay run by the CRO)
Sequence (Q92769 whole entry): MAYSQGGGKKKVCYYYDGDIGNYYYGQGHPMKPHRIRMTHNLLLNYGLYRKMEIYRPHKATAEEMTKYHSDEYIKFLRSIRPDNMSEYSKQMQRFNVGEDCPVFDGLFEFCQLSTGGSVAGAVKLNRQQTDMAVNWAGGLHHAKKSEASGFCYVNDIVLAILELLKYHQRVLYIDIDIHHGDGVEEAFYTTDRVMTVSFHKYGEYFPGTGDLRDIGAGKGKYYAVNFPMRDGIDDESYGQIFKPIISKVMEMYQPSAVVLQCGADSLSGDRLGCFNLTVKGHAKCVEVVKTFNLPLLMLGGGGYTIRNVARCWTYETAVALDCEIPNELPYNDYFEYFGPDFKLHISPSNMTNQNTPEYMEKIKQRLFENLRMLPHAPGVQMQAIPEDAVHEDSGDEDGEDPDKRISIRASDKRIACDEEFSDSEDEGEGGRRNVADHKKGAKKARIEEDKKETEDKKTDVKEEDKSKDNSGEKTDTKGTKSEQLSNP
Assay: HDAC2 inhibition, full IC50 measurement (Reaction Biology; fluorogenic p53 peptide RHKK(Ac)AMC)
Assay type: biochemical
Conditions: Conc. 5.08E-10 M, t1
Peptide text beside a SMILES is read from it.
# output: bare number, no unit

Check out these entries, answers already filled in.
molecule | assayed-system | value
N=C(N)NCCC[C@H]1NC(=O)[C@@H]2CCCN2C(=O)[C@H](CO)NC(=O)[C@@H](Cc2c[nH]cn2)NC(=O)[C@H](CCCCCS)NC(=O)[C@H](CCCCN)NC(=O)[C@H](Cc2ccc(O)cc2)NC(=O)[C@H]2CCCN2C(=O)[C@@H](CCC(N)=O)NC1=O [des3.1.0, SHA-dHis-Ser-Pro-dArg-dGln-dPro-Tyr-Lys] (HELM PEPTIDE1{K.[O=C([C@H](CCCCCS)N[*:1])[*:2]].[dH].S.P.[dR].[dQ].[dP].Y}$PEPTIDE1,PEPTIDE1,1:R1-9:R2$$$V2.0) | HDAC2 (Homo sapiens) | 616136
CCCC[C@H]1NC(=O)[C@H](CC(=O)O)NC(=O)[C@@H](CO)NC(=O)[C@@H](C)NC(=O)[C@H](CCCCN)NC(=O)[C@@H](CCCCN)NC(=O)[C@H](Cc2ccccc2)NC(=O)[C@H](CCCCCS)NC1=O [des4.3.1.2, SHA-Phe-dLys-Lys-dAla-dSer-Asp-dNle] (HELM PEPTIDE1{D.[CCCC[C@@H](N[*:1])C(=O)[*:2]].[O=C([C@H](CCCCCS)N[*:1])[*:2]].F.[dK].K.[dA].[dS]}$PEPTIDE1,PEPTIDE1,1:R1-8:R2$$$V2.0) | HDAC2 (Homo sapiens) | 1916889
NCCCC[C@H]1NC(=O)[C@H](CCC(N)=O)NC(=O)[C@H](CCC(=O)O)NC(=O)[C@@H]2CCCN2C(=O)[C@H](CC(N)=O)NC(=O)[C@H](CCCCCS)NC(=O)CNC(=O)[C@H](Cc2c[nH]c3ccccc23)NC1=O [des1.1.1, SHA-Asn-Pro-Glu-Gln-dLys-Trp-Gly] (HELM PEPTIDE1{E.Q.[dK].W.G.[O=C([C@H](CCCCCS)N[*:1])[*:2]].N.P}$PEPTIDE1,PEPTIDE1,1:R1-8:R2$$$V2.0) | HDAC2 (Homo sapiens) | 761364

In the following, a different molecule is considered.
Reported HDAC2 activity raw data (signal) of CC(C)[C@@H]1NC(=O)[C@H](CCCNC(=N)N)NC(=O)[C@@H](CC(=O)O)NC(=O)[C@H](CO)NC(=O)[C@@H](CO)NC(=O)[C@@H](CCC(=O)O)NC(=O)[C@H](Cc2ccc(O)cc2)NC(=O)[C@H](CCCCCS)NC1=O [des4.2.0, SHA-Tyr-dGlu-dSer-Ser-dAsp-Arg-Val] (HELM PEPTIDE1{R.V.[O=C([C@H](CCCCCS)N[*:1])[*:2]].Y.[dE].[dS].S.[dD]}$PEPTIDE1,PEPTIDE1,1:R1-8:R2$$$V2.0) : 1775852
